- Organism: Rattus norvegicus
- Protocol notes: DrugMatrix - Regimen: Daily Repeat
- Type: toxicity, organism-based, Sprague-Dawley
- Parameters: regimen Daily Repeat, gender Male, age 6-8 weeks
- Condition summary: in vivo, po, 120 mg/kg, […], tissue Blood, route oral GAVAGE, dose level High, time 14 day, vehicle 100 % WATER
Outcome measure: ABSOLUTE LYMPHOCYTE (cells/µL)

compound="COCCc1ccc(OCC(O)CNC(C)C)cc1 (stereo unspecified)" outcome_measure="ABSOLUTE LYMPHOCYTE" meas_value=10900

---

- Species: Rattus norvegicus
- Protocol notes: DrugMatrix - Regimen: Daily Repeat
- Format: toxicity, organism-based, Sprague-Dawley
- Design: regimen Daily Repeat, gender Male, age 6-8 weeks
- Condition summary: in vivo, po, 0 mg/kg, 72 h, tissue Blood, route oral GAVAGE, dose level Control, time 3 day, vehicle 100 % WATER
Collected ABSOLUTE SEGMENTED NEUTROPHIL values appear next to each entry.
Outcome measure: ABSOLUTE SEGMENTED NEUTROPHIL

molecule=Cn1cc[nH]c1=S outcome_measure="ABSOLUTE SEGMENTED NEUTROPHIL" meas_value="887 CELLS/uL"
molecule="C=CCC1(C(C)CCC)C(=O)NC(=O)NC1=O (stereo not given)" outcome_measure="ABSOLUTE SEGMENTED NEUTROPHIL" meas_value="817.83 CELLS/uL"
molecule=Clc1cccc(Cl)c1N=C1NCCN1 outcome_measure="ABSOLUTE SEGMENTED NEUTROPHIL" meas_value="2145 CELLS/uL"
molecule=Cc1onc(-c2ccccc2Cl)c1C(=O)N[C@@H]1C(=O)N2[C@@H]1SC(C)(C)[C@@H]2C(=O)O outcome_measure="ABSOLUTE SEGMENTED NEUTROPHIL" meas_value="1021.17 CELLS/uL"
molecule=CN(C)CCCN1c2ccccc2Sc2ccc(Cl)cc21 outcome_measure="ABSOLUTE SEGMENTED NEUTROPHIL" meas_value="1045.33 CELLS/uL"

---

- Organism: Rattus norvegicus
- Protocol notes: DrugMatrix - Regimen: Daily Repeat
- Type: toxicity, organism-based, Sprague-Dawley
- Parameters: regimen Daily Repeat, gender Male, age 6-8 weeks
- Condition summary: in vivo, po, 0 mg/kg, 72 h, tissue Blood, route oral GAVAGE, dose level Control, time 3 day, […]
Outcome measure: LYMPHOCYTE (%)

compound=Cc1ccc(-c2cc(C(F)(F)F)nn2-c2ccc(S(N)(=O)=O)cc2)cc1 meas_value=87.5
compound=O=c1oc2ccccc2c(O)c1Cc1c(O)c2ccccc2oc1=O meas_value=90.33
compound=O=NN(CCCl)C(=O)NC1CCCCC1 meas_value=91
compound="CC(C)C(=O)Nc1ccc([N+](=O)[O-])c(C(F)(F)F)c1 [FLUTAMIDE]" meas_value=94.67
compound=Cc1noc(NS(=O)(=O)c2ccc(N)cc2)c1C meas_value=88.67
compound=C[C@H]1O[C@@H](O[C@H]2[C@@H](O)C[C@H](O[C@H]3[C@@H](O)C[C@H](O[C@H]4CC[C@@]5(C)[C@H](CC[C@@H]6[C@@H]5C[C@@H](O)[C@]5(C)[C@@H](C7=CC(=O)OC7)CC[C@]65O)C4)O[C@@H]3C)O[C@@H]2C)C[C@H](O)[C@@H]1O meas_value=89.17
compound=C[C@@H]1CN(c2c(F)c(N)c3c(=O)c(C(=O)O)cn(C4CC4)c3c2F)C[C@H](C)N1 meas_value=91

---

- Organism: Rattus norvegicus
- Protocol notes: DrugMatrix - Regimen: Daily Repeat
- Format: toxicity, organism-based, Sprague-Dawley
- Parameters: regimen Daily Repeat, gender Male, age 6-8 weeks
- Condition summary: in vivo, po, 0 mg/kg, 72 h, tissue Blood, route oral GAVAGE, dose level Control, time 3 day, vehicle 100 % WATER
Collected EOSINOPHIL values appear next to each entry.
Outcome measure: EOSINOPHIL (%)

compound="COc1cc2nc(N3CCN(C(=O)C4COc5ccccc5O4)CC3)nc(N)c2cc1OC (stereo not given)" outcome_measure=EOSINOPHIL unit_descriptor=% meas_value=0.67
compound=C[C@H]1c2cccc(O)c2C(=O)C2=C(O)[C@]3(O)C(=O)C(C(N)=O)=C(O)[C@@H](N(C)C)[C@@H]3[C@@H](O)[C@@H]21.O outcome_measure=EOSINOPHIL unit_descriptor=% meas_value=0.67
compound=C[C@](N)(Cc1ccc(O)c(O)c1)C(=O)O outcome_measure=EOSINOPHIL unit_descriptor=% meas_value=0.33
compound=NCCCCCC(=O)O outcome_measure=EOSINOPHIL unit_descriptor=% meas_value=0.33
compound=C[C@H](CS)C(=O)N1CCC[C@H]1C(=O)O outcome_measure=EOSINOPHIL unit_descriptor=% meas_value=0
compound="CC(O)CO (stereo not given)" outcome_measure=EOSINOPHIL unit_descriptor=% meas_value=0.33
compound=c1ccc([C@H]2CN3CCSC3=N2)cc1 outcome_measure=EOSINOPHIL unit_descriptor=% meas_value=0.17
compound=Cc1onc(-c2ccccc2Cl)c1C(=O)N[C@@H]1C(=O)N2[C@@H]1SC(C)(C)[C@@H]2C(=O)O outcome_measure=EOSINOPHIL unit_descriptor=% meas_value=0.33
compound="C=CCC1(C(C)CCC)C(=O)NC(=O)NC1=O (stereo not given)" outcome_measure=EOSINOPHIL unit_descriptor=% meas_value=0.33
compound=Clc1cccc(Cl)c1N=C1NCCN1 outcome_measure=EOSINOPHIL unit_descriptor=% meas_value=0.17
compound=CNNCc1ccc(C(=O)NC(C)C)cc1 outcome_measure=EOSINOPHIL unit_descriptor=% meas_value=0
compound=N[C@@H](Cc1ccc(O)c(O)c1)C(=O)O outcome_measure=EOSINOPHIL unit_descriptor=% meas_value=0.67
compound=Nc1c2c(nc3ccccc13)CCCC2 outcome_measure=EOSINOPHIL unit_descriptor=% meas_value=0.5
compound=Cn1cc[nH]c1=S outcome_measure=EOSINOPHIL unit_descriptor=% meas_value=0
compound=CN(C)CCCN1c2ccccc2Sc2ccc(Cl)cc21 outcome_measure=EOSINOPHIL unit_descriptor=% meas_value=1

---

- Species on record: Rattus norvegicus
- Protocol notes: DrugMatrix - Regimen: Daily Repeat
- Format: toxicity, organism-based, Sprague-Dawley
- Set-up: regimen Daily Repeat, gender Male, age 6-8 weeks
- Condition summary: in vivo, iv, 0 mg/kg, 72 h, tissue Plasma, dose level Control, time 3 day, vehicle 100 % SALINE
Starred links: 1 amine or outer side, 2 acyl side, 3 side chain; linkers in the order of their positions; H or OH if unused. Positions of bridges follow the written chain, without caps; N, C: chain ends. Non-standard residues stand in square brackets, D forms with d. Residues, ends and D or L forms follow the SMILES beside them. Chains are numbered I, II in the order given. Actinocin(9to1) = Cc1c2oc3c(C)ccc(C(=O)[*:1])c3nc-2c(C(=O)[*:2])c(N)c1=O; NMeV = CN[C@H](C(=O)O)C(C)C; Sar = CNCC(=O)O
Collected CARBON DIOXIDE values appear next to each entry.
Outcome measure: CARBON DIOXIDE (mmol/L)

compound="CC[C@]1(O)C[C@H]2CN(CCc3c([nH]c4ccccc34)[C@@](C(=O)OC)(c3cc4c(cc3OC)N(C=O)[C@H]3[C@@](O)(C(=O)OC)[C@H](OC(C)=O)[C@]5(CC)C=CCN6CC[C@]43[C@@H]65)C2)C1 [VINCRISTINE]" meas_value=34.5
compound=COc1cc2c3cc1Oc1cc(ccc1O)C[C@@H]1c4c(cc(OC)c(O)c4Oc4ccc(cc4)C[C@@H]3N(C)CC2)CC[N+]1(C)C.[Cl-] meas_value=28
compound="Cc1c2oc3c(C)ccc(C(=O)N[C@@H]4C(=O)N[C@H](C(C)C)C(=O)N5CCC[C@H]5C(=O)N(C)CC(=O)N(C)[C@@H](C(C)C)C(=O)O[C@@H]4C)c3nc-2c(C(=O)N[C@@H]2C(=O)N[C@H](C(C)C)C(=O)N3CCC[C@H]3C(=O)N(C)CC(=O)N(C)[C@@H](C(C)C)C(=O)O[C@@H]2C)c(N)c1=O [DACTINOMYCIN] (I: T[dV]P[Sar][NMeV] / II: T[dV]P[Sar][NMeV]; ester I:1-I:C, II:1-II:C; linker I:N-II:N via Actinocin(9to1))" meas_value=25.67
compound="Cc1ccc(N(CC2=NCCN2)c2cccc(O)c2)cc1 [PHENTOLAMINE]" meas_value=23.5

---

- Organism: Rattus norvegicus
- Protocol notes: DrugMatrix - Regimen: Daily Repeat
- Type: toxicity, organism-based, Sprague-Dawley
- Design: regimen Daily Repeat, gender Male, age 6-8 weeks
- Condition summary: in vivo, po, 0 mg/kg, 72 h, tissue Plasma, route oral GAVAGE, dose level Control, time 3 day, vehicle 100 % WATER
Response key: True means ALANINE AMINOTRANSFERASE >= 50 u/L; False means ALANINE AMINOTRANSFERASE < 50 u/L.

compound=c1ccc([C@H]2CN3CCSC3=N2)cc1 label_class=True
compound=CNNCc1ccc(C(=O)NC(C)C)cc1 label_class=True
compound=N[C@@H](Cc1ccc(O)c(O)c1)C(=O)O label_class=False
compound=C[C@H](CS)C(=O)N1CCC[C@H]1C(=O)O label_class=True
compound=Nc1c2c(nc3ccccc13)CCCC2 label_class=False
compound="C=CCC1(C(C)CCC)C(=O)NC(=O)NC1=O (stereo not given)" label_class=True
compound="COc1cc2nc(N3CCN(C(=O)C4COc5ccccc5O4)CC3)nc(N)c2cc1OC (stereo not given)" label_class=False
compound=C[C@H]1c2cccc(O)c2C(=O)C2=C(O)[C@]3(O)C(=O)C(C(N)=O)=C(O)[C@@H](N(C)C)[C@@H]3[C@@H](O)[C@@H]21.O label_class=False
compound=C[C@](N)(Cc1ccc(O)c(O)c1)C(=O)O label_class=True
compound=CN(C)CCCN1c2ccccc2Sc2ccc(Cl)cc21 label_class=True

Taken from ChEMBL document CHEMBL3885881.
